# System name: T1, Cav3.1 (Homo sapiens, UniProt O43497)
# T1 construct: expressed in transfected cells; host or cells: HEK-293, stably transfected
# T1 sequence (O43497 whole entry): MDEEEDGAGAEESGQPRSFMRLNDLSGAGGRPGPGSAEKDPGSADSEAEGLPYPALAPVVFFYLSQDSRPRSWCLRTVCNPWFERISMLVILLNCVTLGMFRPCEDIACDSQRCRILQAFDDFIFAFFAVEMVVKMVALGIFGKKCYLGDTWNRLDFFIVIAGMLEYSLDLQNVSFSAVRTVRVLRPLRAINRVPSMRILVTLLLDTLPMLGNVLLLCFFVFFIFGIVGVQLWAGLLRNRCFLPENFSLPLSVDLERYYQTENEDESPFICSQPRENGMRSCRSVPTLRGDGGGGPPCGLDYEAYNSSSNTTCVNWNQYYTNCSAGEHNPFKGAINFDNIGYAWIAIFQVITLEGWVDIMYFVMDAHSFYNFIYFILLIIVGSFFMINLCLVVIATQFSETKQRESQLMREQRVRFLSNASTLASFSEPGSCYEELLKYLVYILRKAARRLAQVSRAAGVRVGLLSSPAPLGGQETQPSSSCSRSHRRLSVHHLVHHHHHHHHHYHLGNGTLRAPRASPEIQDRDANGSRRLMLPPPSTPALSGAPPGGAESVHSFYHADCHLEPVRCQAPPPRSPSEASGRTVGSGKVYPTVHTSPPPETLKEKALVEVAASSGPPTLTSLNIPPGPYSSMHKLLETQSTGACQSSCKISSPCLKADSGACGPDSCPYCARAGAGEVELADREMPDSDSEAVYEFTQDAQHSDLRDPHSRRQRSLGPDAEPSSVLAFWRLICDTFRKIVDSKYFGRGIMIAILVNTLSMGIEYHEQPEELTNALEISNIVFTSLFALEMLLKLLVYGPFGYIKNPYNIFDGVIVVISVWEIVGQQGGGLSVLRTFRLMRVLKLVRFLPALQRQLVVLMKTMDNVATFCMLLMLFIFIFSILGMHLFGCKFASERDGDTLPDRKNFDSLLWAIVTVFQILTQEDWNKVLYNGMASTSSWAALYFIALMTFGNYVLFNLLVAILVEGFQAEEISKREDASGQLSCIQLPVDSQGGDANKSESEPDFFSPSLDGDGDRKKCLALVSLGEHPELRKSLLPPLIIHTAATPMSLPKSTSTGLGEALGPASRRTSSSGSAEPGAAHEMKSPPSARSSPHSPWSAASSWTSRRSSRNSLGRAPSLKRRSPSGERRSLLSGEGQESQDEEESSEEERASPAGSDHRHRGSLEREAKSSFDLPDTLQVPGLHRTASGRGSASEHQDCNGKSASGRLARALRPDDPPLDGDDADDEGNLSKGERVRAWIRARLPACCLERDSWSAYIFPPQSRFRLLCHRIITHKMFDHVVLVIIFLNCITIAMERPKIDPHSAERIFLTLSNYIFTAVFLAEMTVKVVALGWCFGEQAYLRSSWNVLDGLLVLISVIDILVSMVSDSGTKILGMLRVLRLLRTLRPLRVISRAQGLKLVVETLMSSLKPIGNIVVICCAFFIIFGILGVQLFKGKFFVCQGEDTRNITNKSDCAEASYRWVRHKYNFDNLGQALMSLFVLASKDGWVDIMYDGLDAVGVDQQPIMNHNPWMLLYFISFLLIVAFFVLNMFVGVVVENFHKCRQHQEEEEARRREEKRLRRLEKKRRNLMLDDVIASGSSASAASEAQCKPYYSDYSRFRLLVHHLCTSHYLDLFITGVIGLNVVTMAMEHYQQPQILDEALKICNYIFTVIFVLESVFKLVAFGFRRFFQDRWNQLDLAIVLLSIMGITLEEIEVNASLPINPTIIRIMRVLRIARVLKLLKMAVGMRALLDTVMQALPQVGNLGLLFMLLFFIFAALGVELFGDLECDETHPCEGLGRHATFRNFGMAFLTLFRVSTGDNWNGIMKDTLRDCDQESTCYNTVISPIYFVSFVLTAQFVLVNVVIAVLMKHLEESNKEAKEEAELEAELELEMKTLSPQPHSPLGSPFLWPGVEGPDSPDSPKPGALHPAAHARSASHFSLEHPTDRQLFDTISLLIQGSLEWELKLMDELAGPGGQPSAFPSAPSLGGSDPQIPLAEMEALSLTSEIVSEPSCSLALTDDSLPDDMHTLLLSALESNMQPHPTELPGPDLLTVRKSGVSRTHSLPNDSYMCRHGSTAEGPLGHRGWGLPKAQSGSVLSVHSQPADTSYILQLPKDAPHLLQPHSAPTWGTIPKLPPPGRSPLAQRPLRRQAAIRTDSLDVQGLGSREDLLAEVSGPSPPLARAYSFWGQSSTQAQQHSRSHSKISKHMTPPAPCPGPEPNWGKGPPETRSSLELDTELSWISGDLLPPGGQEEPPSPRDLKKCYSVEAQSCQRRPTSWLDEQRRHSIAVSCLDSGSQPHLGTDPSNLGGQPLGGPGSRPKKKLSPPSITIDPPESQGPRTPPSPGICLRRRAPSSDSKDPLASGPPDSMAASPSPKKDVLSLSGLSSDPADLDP
# Test details: Whole-cell patch clamp of Cav3.1 dependent LVA calcium current in HEK-293/Cav3.1 cells transiently transfected with γ subunits (Example 1)
# Format: cell-based
# Condition parameters: HEK-293/Cav3.1, normalized to adCGI vector control, mean±S.E.M.
Outcome measure: Peak current density, % of control value

For the molecule γ6S: rat calcium channel γ6 subunit, short isoform (AF361344), SEQ ID NO:49 (protein, listed as Rattus norvegicus) MMWSNFFMQEEDRRRTAVGRRRAQEQQNLGLTPEREGKIKLGLLVAIVGATLAVLAVGTEFWVELNTYKTNGSAVCEAAHLGLWKVCIKRLWQADVPAGRETCGPAELPGEANCTYFKFFTTGENAHIFQRTTKKGLLLFVSLEVFRHSVRALLQGVNPETPPAPRLAYEYSWSLGCGVGAGLILLLGGVCFLLLTLPSWPWRSLCPKRGGPTA , give its reported Peak current density, % of control value.
31%±13%
